# System: NCI-H23 lung
# ASSAY_NOTES: NCI-60 one-dose screen, 48 h
# REPORTED_CONDITIONS: 10 µM unless noted
This is part of a sample that, as a whole, favours compounds with a hit. Of some 83,000 tested, about 20% had one in any assay. Calls of active or inactive are those of the source. How the source made its calls: active means growth percent below 10; inactive means the rest.
Labels: Yes (active), No (inactive)

COMPOUND: CC(C)(NC(=O)O[C@@H]1CN2CCC1CC2)c1csc(-c2ccc(F)cc2)n1
CATEGORY_LABEL: No

COMPOUND: O=C(CC1(O)C(=O)N(Cc2ccccc2)c2ccccc21)c1ccc(C(=O)NCC2CCC3(CC2)OOC2(CCCCC2)OO3)cc1 (configuration not stated)
CATEGORY_LABEL: Yes

COMPOUND: CC(C)[C@]12O[C@H]1[C@@H]1O[C@]13[C@]1(O[C@H]1C[C@H]1c4c(C(=O)c5ccccc5)oc(OC(=O)c5ccccc5)c4CC[C@@]13C)[C@@H]2O
CATEGORY_LABEL: Yes

COMPOUND: CC1[C@H](C)OC(=O)CC(O)CC(O)CC(O)CCC(O)C(O)C[C@]2(O)CC(O)C(C(=O)O)C(CC(OC3O[C@H](C)[C@@H](O)[C@H](N)[C@@H]3O)/C=C/C=C/C=C/C=C/CC/C=C/C=C/[C@H](C)[C@H]1O)O2 (some centres not stated)
CATEGORY_LABEL: No

COMPOUND: O=C1NC(=O)C(=Cc2cccn2CCCCCn2c3ccccc3c(=O)c3ccccc32)C(=O)N1
CATEGORY_LABEL: No

COMPOUND: C[CH2][Sn]([Cl])([Cl])[CH2]C.Oc1ccccc1C=NCCN=Cc1ccccc1O
CATEGORY_LABEL: No

COMPOUND: CCOC(=O)[C@@H](C)C[C@H](Cc1ccccc1)NC(=O)c1csc([C@@H](C[C@H](C(C)C)N(C)C(=O)[C@H](CC)NC(=O)[C@H]2CCCCN2C)OC(C)=O)n1
CATEGORY_LABEL: No

COMPOUND: C/C=C(\C)C(=O)O[C@@H]1C(O)[C@H]2OC(COC(=O)CCC(=O)CCCCCC[C@H](CCCCC)O[C@@H]3OC(C)[C@H](OC(C)=O)C(O)[C@H]3O2)[C@H]1OC(=O)/C=C/c1ccccc1 (some centres not stated)
CATEGORY_LABEL: No

COMPOUND: O=[N+]([O-])CC(O)C(Cl)(Cl)Cl (configuration not stated)
CATEGORY_LABEL: No

COMPOUND: O=C1N[C@@H]2[C@@H](O)[C@@H](O)[C@H](O)C[C@H]2c2cc3c(c(O)c21)OCO3
CATEGORY_LABEL: Yes

COMPOUND: CCOC(=O)[C@@H](C)C[C@H](Cc1ccccc1)NC(=O)c1csc([C@@H](C[C@H](C(C)C)N(C)C(=O)[C@@H](NC(=O)[C@H]2CCCCN2C)C(C)(C)C)OC(C)=O)n1
CATEGORY_LABEL: No

COMPOUND: c1ccc(COc2ccc3[nH]cc(CCN(Cc4ccccc4)Cc4ccccc4)c3c2)cc1
CATEGORY_LABEL: No

COMPOUND: COc1ccc(/C=C\c2cc(OC)c(OC)c(OC)c2)cc1OCC(=O)Nc1nc2ccc(C(F)(F)F)cc2s1
CATEGORY_LABEL: No

COMPOUND: CN1CCC(c2c[nH]c3ccccc23)C1 (configuration not stated)
CATEGORY_LABEL: No

COMPOUND: CC[C@H](C)[C@H](NC(=O)c1ccccn1)C(=O)N(C)[C@H](C[C@@H](OC(C)=O)c1nc(C(=O)N[C@@H](Cc2ccccc2)C[C@H](C)C(=O)OC)cs1)C(C)C
CATEGORY_LABEL: No

COMPOUND: CCC1(C)CC(CCNCc2ccccc2O)(c2ccc(C)cc2)CCO1 (configuration not stated)
CATEGORY_LABEL: No

COMPOUND: O=C1CN=C(c2ccc(Cl)cc2)c2sccc2N1
CATEGORY_LABEL: No

COMPOUND: CCCOC(=O)N[C@H]1CCc2c(Br)c(OC)c(OC)c(OC)c2-c2ccc(SC)c(=O)cc21
CATEGORY_LABEL: No

COMPOUND: CC[C@H](C)[C@H](NC(=O)C12C3C4C1C1C2C3C41NC(C)=O)C(=O)N(C)[C@H](C[C@@H](OC(C)=O)c1nc(C(=O)N[C@@H](Cc2ccccc2)C[C@H](C)C(=O)OC)cs1)C(C)C (some centres not stated)
CATEGORY_LABEL: No

COMPOUND: COC(=O)[C@@]1(O)C[C@H]2O[C@]1(C)n1c3ccccc3c3c4c(c5c6ccccc6n2c5c31)C(=O)NC4
CATEGORY_LABEL: Yes

COMPOUND: CCCCCSC1C2C(=O)C(Br)=CC13CCNc1c(O)c4c5c(c13)=[N+]2CCC=5C=N4 (configuration not stated)
CATEGORY_LABEL: Yes

COMPOUND: CC1=C([Te]c2ccc(O)cc2)C(=O)c2ccccc2C1=O
CATEGORY_LABEL: Yes

COMPOUND: C=CC12CCN(CC1)C(C(O)c1ccnc3ccc(OC)cc13)C2 (configuration not stated)
CATEGORY_LABEL: No

COMPOUND: CCCc1cc(O)c2c3c(c(=O)oc2c1)CN(C)CC3
CATEGORY_LABEL: No

COMPOUND: CC1=C(O)[C@@](C)(CCCCC[C@H](C)CCCCc2ccc(O)cc2)OOC1=O
CATEGORY_LABEL: No

COMPOUND: C/C1=C/C(=O)O[C@@H]2C[C@@H](CC[C@H](C)/C=C\C=C\CC1)O[C@@](O)([C@@H]1CSC(=O)N1CO)C2
CATEGORY_LABEL: No

COMPOUND: CCc1ccccc1[C@@H]1C[C@]2(C)CCO[C@@H]2OO1
CATEGORY_LABEL: No

COMPOUND: COC(=O)CC12CC(NC(=O)c3csc([C@@H](C[C@H](C(C)C)N(C)C(=O)[C@@H](NC(=O)[C@H]4CCCCN4C)C(C)C)OC(C)=O)n3)(C1)C2
CATEGORY_LABEL: No

COMPOUND: Fc1ccc2c(c1)c(-c1nc(-c3c[nH]c4ncccc34)cs1)cn2CCN1CCOCC1
CATEGORY_LABEL: No

COMPOUND: c1ccc(CSC(c2ccccc2)c2ccccc2)cc1
CATEGORY_LABEL: No

COMPOUND: O[C@H](CN1CC1)[C@@H](O)CN1CC1
CATEGORY_LABEL: No

COMPOUND: COC(=O)[C@@H](C)C[C@H](Cc1ccccc1)NC(=O)c1csc([C@@H](C[C@H](C(C)C)N(C)C(=O)C2(NC(=O)[C@H]3CCCCN3C)CC2)OC(C)=O)n1
CATEGORY_LABEL: No
